Reported TGI values for the following compounds.
- Test system: BT-549 breast
- measurement.protocol: NCI tumour cell line growth inhibition, 48 h

Worked examples follow.
NC(Cc1ccc(OCc2ccccc2)cn1)C(=O)OCc1ccccc1 (stereo not drawn)	> 100 µM
Clc1ccc(C2c3ccccc3-c3nc4ccccc4n32)cc1 (stereo not drawn)	> 100 µM
C[C@]12CC[C@@H]3c4ccc(OS(N)(=O)=O)cc4CC[C@H]3[C@@H]1CCC2=O	> 100 µM
O=c1c2ccccc2sc2nc(CCl)nn12	> 91.6 µM
CO/N=C(\COc1ccc2c(=O)cc(-c3ccccc3)oc2c1)c1ccc(F)cc1	> 100 µM

GET /values?readout=TGI&item= COc1ccc(/C=C/C(=O)Oc2ccc(/C=C3\CCCCC3=O)cc2)cc1
> 100 µM

GET /values?readout=TGI&item= CCOC(=O)C1C=C1C(C)(C)O (stereo not drawn)
> 10 µM

GET /values?readout=TGI&item= COc1cccc(C2SCC(=O)N2c2ccc(-c3ccc(-n4c(-c5ccccc5)nc5ccccc5c4=O)cc3)cc2)c1OC (stereo not drawn)
> 100 µM

GET /values?readout=TGI&item= Cn1c(=O)n2c(=O)n(C)c(=O)n2c1=O
> 100 µM

GET /values?readout=TGI&item= CC(C)=NN/C(=N\S(=O)(=O)c1cc2ccccc2s1)Nc1ccc(Cl)cc1
> 100 µM

###

- Tested on: U251 CNS
- measurement.protocol: NCI tumour cell line growth inhibition, 48 h
attribute.measured: TGI

GET /values?readout=TGI&item= O=S1[C@H](c2ccccc2)c2c(-c3ccccc3)sc(-c3ccccc3)c2[C@@H]1c1ccccc1 (stereo partly drawn)
> 100 µM

GET /values?readout=TGI&item= O=C(O)c1cc2cc(OCc3ccccc3)ccc2[nH]1
> 100 µM

GET /values?readout=TGI&item= Cc1cc(C)n(-c2nc3ccccc3c(=O)[nH]2)n1
> 45.5 µM

###

Reported TGI values for the following molecules.
- Test system: SK-OV-3 ovarian
- measurement.protocol: NCI tumour cell line growth inhibition, 48 h

Worked examples follow.
O=S(=O)(N/N=C/c1c(Cl)cccc1Cl)c1ccccc1	> 100 µM
Cn1cc(-c2ccc(-c3cn(C)c4ncccc34)[nH]2)c2cccnc21	> 100 µM
Cn1ccnc1Cn1cc(-c2cccc(-c3cn[nH]c3)c2)cn1	41.9 µM
CN(C)c1ccc(/C=C2\N=C(N/N=C/c3ccc(N(C)C)cc3)NC2=O)cc1	> 100 µM
CC(Cc1ccc(O)cc1)NCC(O)c1ccc(O)c(O)c1 (stereo not drawn)	> 100 µM
O=c1ccc2ccc(O)c3c4c(=O)ccc5ccc(O)c(c1c23)c54	8.61 µM

GET /values?readout=TGI&item= Cn1cccc(C(=O)c2ccccc2)c1=O
> 100 µM

GET /values?readout=TGI&item= CCCCCc1c(Cl)nc(Cl)nc1Cl
31.8 µM

###

- Test system: UACC-62 melanoma
- measurement.protocol: NCI tumour cell line growth inhibition, 48 h; in the data active = GI50 below about 0.43 µM; inactive = the rest
Entry note: the call must match one of 1 = active, 0 = inactive

Tell me the recorded outcome of this test for CCCCCC/C=C\CCCCCCCCCc1cc(O)cc(OC)c1O .
1

###

Reported TGI values for the following molecules.
- Tested on: HOP-92 NSCLC
- measurement.protocol: NCI tumour cell line growth inhibition, 48 h

O=C1C(C(Nc2ccccc2)c2ccccc2)=C([O-])c2ccccc21.O=C1C(C(Nc2ccccc2)c2ccccc2)=C([O-])c2ccccc21.[Co+2] (stereo not drawn)	> 100 µM

GET /values?readout=TGI&item= O=[N+]([O-])c1ccc(-c2nc(/C=N/N3CCCCC3)cs2)o1
> 100 µM

GET /values?readout=TGI&item= CCOC(=O)C1(C(C)=O)OC(=O)c2cnccc21 (stereo not drawn)
> 100 µM

The values you see were collected from PubChem BioAssay (NCI).
